- MEASURED_ON: ZFP SBS#1188 (synthetic)
- Sequence (chain, as listed by the source): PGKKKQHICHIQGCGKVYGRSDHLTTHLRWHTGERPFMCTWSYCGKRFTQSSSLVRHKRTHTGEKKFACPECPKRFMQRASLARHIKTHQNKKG
- ASSAY_INFO: EMSA
- ASSAY_CONDITIONS: tags: MBP fusion
READOUT_LABEL: Kd (nM)
Hi! Could you send only the number? It should be in nM, unit omitted.

*Q* Recorded Kd of GTAGTATGG (dsDNA) DNA 1: GTAGTATGG DNA 2: CCATACTAC , please.
*A* 2.74
